Hey, just so you know, these numbers are from the nanobody polyreactivity screen of Harvey et al. (2022).

Assay: yeast display, Sf9 membrane polyspecificity reagent, FACS + sequencing; frameworks hold sequencing errors
Quantity name: polyreactivity (PSR sort gate)

Example entries and their recorded answers appear below.
Sequence input | polyreactivity (PSR sort gate)
QVQLVESGGGLVQAGGSLRLSCAASGFTFYGNAMGSSRQAPGKEREWVAAITSTGNTYYADSVTGRFTISRDNAKNTVYLQMNSLKPEDTAVYYCARRGDILYDYWGQGTQVTVSS | low polyreactivity
QVQLVESGGGLLQAGGSLRLSCADSGSTFGANSLRWYIQAPGKEREFVAAISGSGTTTYYADSVKGRFTISRDNAKNTFYLQMHRLKPEDTAVYYCDKTRIAHWLEYWGQGTQVTVSS | low polyreactivity
QVQLVESGGGLVQAGGSLRLSCAASGSTFEYNAMGWYRQAPGKERELVASSTNYADSGKGRFTISRDNAKNTVYLQMNSLKPEDTAVYYCAREQGVNRNHDYWGQGTQVTVSS | low polyreactivity
QFQLEESGGGLVQAGGSIRLSCAASGFILDSYGMGWYRQAPGTERELVAAISQSDVSTYYADSVNGRYTISRDNAKNTVYLHMNSLKPEDTAVYYCAADRGGLRWFWQVLFDYWGQGTQVTVSS | low polyreactivity
QVQLVESGGGLVQAGGRLRLSCAACGIIFLLYAMGWYRQAPGKERELVAAITNGGRTNYADSVQGRFTISRDNAKNTVYLQMNSRKPEDTALYYCNAVLSVPDYTLFDYWGQGTQVTVSS | low polyreactivity

Returns the measured polyreactivity (PSR sort gate) for the input sequence. Input: QVQLVESGGGLVQAGGSLSLSCAASGFIFYRYAMGWYRQAPGKERELVAGISSRGGSTYYADSVKGRFTISRDNAKNTVYLQMNSLKPEDTAVYYCAKRPLTSNASQGDYWGQGTQVTVSS
high polyreactivity

Returns the measured polyreactivity (PSR sort gate) for the input sequence. Input: QVQLVESGGGLVQAGGSLRLSCAASGRTFGRYTMGLYRQAPGKERELVAAITYSGGSTYYADSVKGRFTISRDNAKNTVYFQMNSLKPVDTAVYYCADEWGYDWYRYGYWGQGTQVTVSS
low polyreactivity

----------
Test: yeast display, Sf9 membrane polyspecificity reagent, FACS + sequencing; frameworks hold sequencing errors
Quantity name: polyreactivity (PSR sort gate)

Example entries and their recorded answers appear below.
Sequence input | Quantity name | Experimental value
QVQLVDSGGGLVQAGGSLRLSCAASGSIFTDNAMGWYIQAPGKERDLVAAITGRGGNTYYADSLKGRFPISRDNAKNTVYLQMNSLKPEDTAVYYCAARIFRTRKPLGYWGQGTQVTVSS | polyreactivity (PSR sort gate) | high polyreactivity
QVQLVESGGGLVQAGGSLRLSCAASGLIFPCYDMGWYRQAPGKERELVAAISDSGANTYYADSVKGRFTISRDNAKNTVYFQMNSLKPEDTAVYYCAAESSWWYGTSFGRFDYWGQGTQVTVSS | polyreactivity (PSR sort gate) | low polyreactivity
QVQHVESGGGLVQAGGSLRLSCAASGTIFEGKGMGWYRQAPGKERELVAAITFRSGSTYYADSVKGRFTISRDNAKNTVYLQMNSLKPEDTAVYYCAADEYYQVSAYDYWGQGTQVTVSS | polyreactivity (PSR sort gate) | low polyreactivity
QVQLVESGGGLVQAGGSLRLSCAASGLIFWYNAMGWDRQATGKEREFVAAITSDGGRTYYADSVKGRFTISRDNAKNTVYLQMNSLKTEDTAVYYCTARGYGYLGRKGGYSYGYYYWGQGTQVTVSS | polyreactivity (PSR sort gate) | low polyreactivity

Next, consider the following sequence.
Returns the measured polyreactivity (PSR sort gate) for the input sequence. Input: QVQLVESGGGLVQAGGSLRLSCAASGFIFAYNAMGWYRQAPGKERELVAAISSRGSRTYYADSVKGRFTISRDKAKNTVYLQMNSLKPEDTAVYYCAARYSRGGFGYWGQGTQVTVSS
high polyreactivity

----------
Test: yeast display, Sf9 membrane polyspecificity reagent, FACS + sequencing; frameworks hold sequencing errors
Quantity name: polyreactivity (PSR sort gate)

Sequence input | polyreactivity (PSR sort gate)
QVQLVESGGGLVQAGGSLRLSCAASGIIFYVNAMGWYRQAPGKERDLVAAITFGGDSTYYADSVKGRFTISRDNAMNTVSVQMNSLKPEDTAVYYCATDGDPAYPEMEYLGQGTQVTVSS | low polyreactivity
QVQLEESGGGLVQAGGSLRLSCAASGSTFLQYPMGWYRQATGKQRELVAAISWRAGSTYYADSVKGRFTISRDTAKNTVYLQMNTLKPEDTAVNYCDADGNRWRYELDDYDYWGQGTQVTGSS | low polyreactivity
QVQLVESGGGLVQAGGSLRLIFAASGFIFETYAMGWYRQAPGKERELVAAISRGASTYYADSVKGRFTISRDNAKNTVYLQMNSLKPEDTAVYDCAAKRLSWHRYGYWGQGTQVTVSS | low polyreactivity
QVQLVESGGGLVQAGGSLRLSCAASGRIFTSNAMGWYRQAPGKERELVAAISSSGTRTYYADSVKGRFTISRDNAKNTVYLQMNSHKPEDTAVYYCASGAPSLKYEYWGQGTQVTVSS | high polyreactivity
QVQLLESGGGLVQAGGSLPVSCAASGSTFDTNDMVWYRQAPGKERELVAAISSGGDYADSVKGRFTISRDNAKNTVYLQMNSLKPEDTAVYYCAKDDTKWGQGTQVTVSS | low polyreactivity

Returns the measured polyreactivity (PSR sort gate) for the input sequence. Input: QVQLVESGGGLVQAGGSLRLSCAASGRIYWSYDMGWNRQAPVKERELVASITSDGSTNYADSVKGRFTISRDNAKNTVYLQMNSLKPEDTAVYYCAARPYKYDPFAQGDGGKYDYWGQGTQVTVSS
low polyreactivity

Returns the measured polyreactivity (PSR sort gate) for the input sequence. Input: QVQLVESGGGLVQAGGSLRLSCAASGFTFKAYAMGWYRQAPGKERELVAAITYSGGSTYYADSVKGRFTISRDNAKNTVYLQMNSLKPEDTAVYYCNADSDLDLYWKMDYWGQGTQVTVSS
low polyreactivity

Returns the measured polyreactivity (PSR sort gate) for the input sequence. Input: QVQLVESGGGLVQAGGSLRLSCAASGITFDVYAMGWYRQAPGKERELVAAISGSGGSTYYADSVKGRFTISRDNAKNTVYLQMNSLKPEDTAVYYCAASGPDGQYLWYDYWGQGTQVTVSS
high polyreactivity

Returns the measured polyreactivity (PSR sort gate) for the input sequence. Input: QVQLVESGGGLVQARGSLRLSCAASGGIFDTYVMGWYRQAPGKERELVAAISCSGSTTYADSVKGRFTISRDNAKYTVYLQMNSLKPEDTAVYYCNADYSTIWRYDYWGQGTQVTVSS
low polyreactivity

Returns the measured polyreactivity (PSR sort gate) for the input sequence. Input: QVQLVESGGGLVQAGGSLRLSCAASGRIFRYYAMGWYRQAPAKERELVASISRRGGSTNYADSVKGRFTISRDNAKNTVYLQMNSLKPEDTAVYYCNAENWSPRGLYNYWGQGTQVTVSS
high polyreactivity

Returns the measured polyreactivity (PSR sort gate) for the input sequence. Input: QVQLVESGGGLVQAGGSLRLSCAASGSTSVVNAMGWYRQAPGKERELVAAISTGGASTYYADSVKGRFTISRDNAKNTVYLQMNSLNPEDTAVYYCAADLGYEYDYWGQGTQVTVSS
high polyreactivity

----------
Experiment: yeast display, Sf9 membrane polyspecificity reagent, FACS + sequencing; frameworks hold sequencing errors
Quantity name: polyreactivity (PSR sort gate)

Sequence input | polyreactivity (PSR sort gate)
QVQLVETGGGLVQAGGSLRLSCAASGSIFSIYAMGWYRQAPGKERELVAAISWSGGSTYYADSVKGRFTISRDNAKNTVYLQMNSLKPEDTAVYYCLRQDYHYHPYDYWGQGTQVTVSS | low polyreactivity
QVQIVESGGGLVQAVGSLRLSCAAYGSTFCANAMGCYRQAPGKERELVAAIRGTGGSTYADSVKGRFTISRDNAKNTVYLQMNSLKPEDTAVYYCNAKGRGWTAQYDYCGQGTQVTVSS | low polyreactivity
QVQLVESGGGLVQAGGSLRLSCAASGFTFYYYAMGWSRQAPGKERELVAAISTRDGNTYYADSVKGRFTISRDNAKNTVYLQRNSLKPEDTAVYYCAADYFRYYPYDYWGQGTQVTVSS | low polyreactivity
QVQLVESGGGLVQAAGSLRLSCAASGRTLGYYAMGWYRPAPGKERELVAAITRGGSTNYADSVKGRFTISRDNAKNTVYLQMNSLKPEDTAVYYCARRGGYFWLKGDYWGQGTQVTVSS | high polyreactivity
QVQLVESGGGLVQAGGSLRLSCAASGSTFPFNAMGWYRQAPGKERELVAAITTSAGSTYYADSVKGRFTISRDNAKKTVYLQMNSLKPEDTAVYYCAARYVPPWGRRYYYWGQGTQVTVSS | high polyreactivity

Returns the measured polyreactivity (PSR sort gate) for the input sequence. Input: QVHLVESGGGLVQAGGSLRLSCAASGFTFDTYDMGWYRQAPGKERELVAAIDRSGVSTYYADSVKGRFTISRDTAKNTVYLQMNSLKQEDPAVYYCAADLWQYDIASWDYTYDYWGQGTQVTVSS
low polyreactivity

Returns the measured polyreactivity (PSR sort gate) for the input sequence. Input: QVQLVESGGGLVQAGGSLRLSCAASGFILDYNTMGWYRQAPGNERELVAAISSSGDTTYYADSVKGRFTISRDNAKNTVYLQMNSLKPEDTAVYYCAREYGDGYEYWGQGTQVTVSS
low polyreactivity

Returns the measured polyreactivity (PSR sort gate) for the input sequence. Input: QVQLVESGGGLFQAGGSLRLSCAASGSIFSWNDMGWYRQAPGKERELVAAINWNGGSTYYADSVKGRFTISRDNEKNSVYLQMNSLKPEYSEVYYCAAERSLYYVYSREYWGQGTQVTVSS
low polyreactivity

Returns the measured polyreactivity (PSR sort gate) for the input sequence. Input: QVQLVESGGGLVQAGGSLRLSCAASGSTFGNYAMGWYRQATGKERELVAASRWSGTRTFYADSVKGRFTISRDNAKNTVYLQMNSLKPEDTAVYYCNAVYSQPGYKGGYSWGQGTQVTVSS
high polyreactivity

Returns the measured polyreactivity (PSR sort gate) for the input sequence. Input: QVQLVESGGGLVQAGGSHRLSCAASGGIFYFNAMGWYRQAPGKERELVASITWSGGNTYYADSVKGRFTISRDNAKNTVYLQMNSLKPEDTAVYYCAADTQEYRPTYDYWGQGTQVTVSS
low polyreactivity

Returns the measured polyreactivity (PSR sort gate) for the input sequence. Input: QVQLVESGGGLVQAGGSLRLSCAASGRTFSVNAMGWYRQAPGKERELVAAITSGGSTYYADSVKGRFTISRDNAKNTVYLQMNSLKPEDTAVYYCNAVGRLRRSRLRMDYWGQGTQVTVSS
high polyreactivity
